biological target: KRAS G12D (Homo sapiens, UniProt P01116, G12D); assay: KRAS_G12D cellular pERK HTRF assay; assay type: cell-based; set-up: CRL-1997; host or cells: A427 or HPAF-II; conditions: KRAS G12D cells (A427, HPAF-II), 2 hours
Sequence (P01116 1-188 isoform P01116-2 G12D): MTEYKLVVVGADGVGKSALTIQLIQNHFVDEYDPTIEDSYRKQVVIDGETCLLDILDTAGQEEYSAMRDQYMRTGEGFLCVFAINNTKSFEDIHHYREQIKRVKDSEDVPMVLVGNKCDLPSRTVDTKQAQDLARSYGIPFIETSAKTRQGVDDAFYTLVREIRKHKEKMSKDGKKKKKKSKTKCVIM
measurement-type: G12D_pERK (KRAS_G12D pERK assay IC50)

COC(=O)CCc1cc2c(O[C@@H](C)[C@@H]3CCCN3C)nc3c(F)c(-c4cc(O)cc5ccccc45)ncc3c2n1C1C2CNC1C2 (single isomer, unassigned) [Example 1a] | †
Cc1cc2c(O[C@@H](C)[C@@H]3CCCN3C)nc3c(F)c(-c4cc(O)cc5ccccc45)ncc3c2n1C1C2CNC1C2 (single isomer, unassigned) [Example 3a] | †
C[C@H](Oc1nc2c(F)c(-c3cccc4c3OCCC4)ncc2c2c1cc(C1CC[C@H]3COC(=O)N13)n2[C@H]1[C@H]2CN[C@@H]1C2)[C@@H]1CCCN1C (single isomer, unassigned) [Example 26a] | †
COC(=O)N1CCC[C@@H]1c1cc2c(O[C@@H](C)CN3CCCC3)nc3c(F)c(-c4cccc5scnc45)ncc3c2n1[C@H]1[C@H]2CN[C@@H]1C2 [Example 25] | †

###

Please respond with reported IC50 for every item in the list.
target: KRAS G12V (Homo sapiens, UniProt P01116, G12V); assay: KRAS_G12V GDP-GTP exchange assay (bodipy-GDP/GppNHp, SOS1); type: biochemical; conditions: bodipy loaded KRAS G12V 2.5 nM, 3 hours incubation after GppNHp-SOS1; read-out: G12V_exchange (KRAS_G12V exchange assay IC50)
Sequence (P01116 1-188 isoform P01116-2 G12V): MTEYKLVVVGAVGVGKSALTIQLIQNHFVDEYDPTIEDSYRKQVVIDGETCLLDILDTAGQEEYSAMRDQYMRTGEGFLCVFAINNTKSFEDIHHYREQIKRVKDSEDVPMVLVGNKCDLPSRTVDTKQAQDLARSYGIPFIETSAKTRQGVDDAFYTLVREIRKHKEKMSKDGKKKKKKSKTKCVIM

Look up IC50: C[C@H](Oc1nc2c(F)c(-c3cccc4c3OCCC4)ncc2c2c1cc(C1CC[C@H]3COC(=O)N13)n2[C@H]1[C@H]2CN[C@@H]1C2)[C@@H]1CCCN1C (single isomer, unassigned) [Example 26b] 100 to 1000 nM

Look up IC50: COC(=O)CCc1nc2c(N3CC(N(C)C)C3)nc3c(F)c(-c4cc(O)cc5ccccc45)ncc3c2n1[C@@H]1[C@@H]2CN[C@H]1C2 (relative stereo) 100 to 1000 nM

Look up IC50: COC(=O)CCc1cc2c(OC[C@@]34CCCN3C[C@H](F)C4)nc3c(F)c(-c4cc(O)cc5ccccc45)ncc3c2n1C1C2CNC1C2 (single isomer, unassigned) [Example 2a] 100 to 1000 nM

Look up IC50: Cc1cc2c(OCC34CCCN3CCC4)nc3c(F)c(-c4cc(O)cc5ccccc45)ncc3c2n1[C@@H]1[C@@H]2CN[C@H]1C2 (relative stereo) ≤ 100 nM

Look up IC50: CC(=O)N1CCC[C@@H]1c1cc2c(O[C@@H](C)[C@@H]3CCCN3C)nc3c(F)c(-c4cccc5scnc45)ncc3c2n1[C@H]1[C@H]2CN[C@@H]1C2 ≤ 100 nM

###

Please respond with reported pIC50 for every item in the list.
biological target: KRAS G12D (Homo sapiens, UniProt P01116, G12D); test: KRAS_G12D GDP-GTP exchange assay (bodipy-GDP/GppNHp, SOS1); type: biochemical; conditions: bodipy-loaded KRAS G12D 2.5 nM, 4 hours pre-incubation, 2 hours exchange; read-out: G12D_exchange (KRAS_G12D exchange assay IC50)
pIC50: −log10 of the molar value.

Look up pIC50: C[C@H](Oc1nc2c(F)c(-c3cccc4c3OCCC4)ncc2c2c1cc(C1CC[C@H]3COC(=O)N13)n2[C@H]1[C@H]2CN[C@@H]1C2)[C@@H]1CCCN1C (single isomer, unassigned) [Example 26b] 6.00 to 7.00

Look up pIC50: Cc1cc2c(O[C@@H](C)[C@@H]3CCCN3C)nc3c(F)c(N4CCc5ccccc54)ncc3c2n1C1C2CNC1C2 (single isomer, unassigned) 6.00 to 7.00

Look up pIC50: Cc1nc2c(F)c(-c3cc(O)cc4ccccc34)ncc2c2c1cc(CN1CCOC1=O)n2[C@@H]1[C@@H]2CN[C@H]1C2 (relative stereo) 6.00 to 7.00

###

molecular target: KRAS G12V (Homo sapiens, UniProt P01116, G12V); test: KRAS_G12V GDP-GTP exchange assay (bodipy-GDP/GppNHp, SOS1); format: biochemical; conditions: bodipy loaded KRAS G12V 2.5 nM, 3 hours incubation after GppNHp-SOS1; read-out: G12V_exchange (KRAS_G12V exchange assay IC50)
pIC50: −log10 of the molar value.
measurement-type: pIC50

Look up pIC50: Cc1cc2c(O[C@@H](C)[C@@H]3CCCN3C)nc3c(F)c(-c4cc(O)cc5ccc(F)cc45)ncc3c2n1[C@H]1[C@H]2CN[C@@H]1C2 ≥ 7.00

Look up pIC50: Cc1cc2c(O[C@@H](C)[C@@H]3CCCN3C)nc3c(F)c(-c4cc(O)cc5ccccc45)ncc3c2n1C1C2CNC1C2 (single isomer, unassigned) [Example 3b] 6.00 to 7.00

Look up pIC50: COC(=O)N1CCC[C@@H]1c1cc2c(O[C@@H](C)CN3CCCC3)nc3c(F)c(-c4cccc5scnc45)ncc3c2n1[C@H]1[C@H]2CN[C@@H]1C2 6.00 to 7.00

Look up pIC50: CN(C)C(=O)CCc1nc2c(N3CC(N(C)C)C3)nc3cc(-c4cc(O)cc5ccccc45)c(CCC#N)nc3c2n1C1C2CNC1C2 (single isomer, unassigned) [Example 17b] 5.30 to 6.00

Look up pIC50: Cc1cc2c(O[C@@H](C)[C@@H]3CCCN3C)nc3c(F)c(-c4cc(O)cc5ccccc45)ncc3c2n1C1C2CNC1C2 (single isomer, unassigned) [Example 3a] ≥ 7.00
